Attribution: patent US20230381333A1

Biological target: T1, human GIP receptor (human, UniProt P48546 22-466)
T1 sequence (looked up): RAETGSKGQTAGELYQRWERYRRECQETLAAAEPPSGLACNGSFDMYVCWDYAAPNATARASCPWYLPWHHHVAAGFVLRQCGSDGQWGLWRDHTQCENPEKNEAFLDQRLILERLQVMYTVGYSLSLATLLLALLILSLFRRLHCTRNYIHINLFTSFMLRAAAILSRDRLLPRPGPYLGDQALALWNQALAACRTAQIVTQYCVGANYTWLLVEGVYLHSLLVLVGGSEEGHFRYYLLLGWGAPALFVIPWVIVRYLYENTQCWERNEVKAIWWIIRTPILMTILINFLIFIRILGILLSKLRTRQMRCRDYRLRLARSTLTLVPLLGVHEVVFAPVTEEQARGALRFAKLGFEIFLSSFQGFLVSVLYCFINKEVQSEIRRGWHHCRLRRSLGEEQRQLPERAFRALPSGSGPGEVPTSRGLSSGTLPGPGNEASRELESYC
Experiment: cell-based or functional assay
Bridge positions count the residues as written; N and C are the ends. Square brackets hold non-standard residues; d marks the D form. Ends that are not written are not given here. * marks the point of attachment. Acetyl(2-(4-imidazolyl)) = O=C(Cc1c[nH]cn1)*; Aib = CC(C)(N)C(=O)O
The following binders are listed with their measured In vitro activity compared to native-type peptide (%), vs GIP values.

// solved cases for In vitro activity compared to native-type peptide (%), vs GIP follow
[in] Give the measured In vitro activity compared to native-type peptide (%), vs GIP for [Acetyl(2-(4-imidazolyl))]GQGTFTSDLSIQYEEEAQQDFVEWLKDTGPSSGAPPPSHG [triple agonist of SEQ ID NO: 20]
[out] < 0.1%

[in] Give the measured In vitro activity compared to native-type peptide (%), vs GIP for {Acetyl(2-(4-imidazolyl))}-[Aib]QGTFTSDYSKYLDEKRQKEFVQWLLNTKC (bridge 15-19) [triple agonist of SEQ ID NO: 88]
[out] < 0.1%

[in] Give the measured In vitro activity compared to native-type peptide (%), vs GIP for [Acetyl(2-(4-imidazolyl))]GEGTFISDYSIQLDEIAVQDFVEWLLAQKPSSGAPPPSHG [triple agonist of SEQ ID NO: 13]
[out] < 0.1%

[in] Give the measured In vitro activity compared to native-type peptide (%), vs GIP for H[Aib]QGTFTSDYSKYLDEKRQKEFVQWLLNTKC (bridge 16-20) [triple agonist of SEQ ID NO: 58]
[out] 0.2%

Now let's try a different one.
[in] Give the measured In vitro activity compared to native-type peptide (%), vs GIP for HGQGTFTSDCSKYLDGQRAQEFVAWLLAGGPSSGAPPPS [triple agonist of SEQ ID NO: 47]
[out] < 0.1%
